Source listed as PubChem BioAssay (NCATS).

Assay: qHTS assay for small molecule agonists of the antioxidant response element (ARE) signaling pathway (AID 651741); as to activation: % of control where 0% means no effect
Conditions: HepG2 ARE-bla reporter, beta-lactamase FRET ratio, 16 h; series mostly up to 96 µM
Source text: National Center for Advancing Translational Sciences [NCATS] NIH Chemical Genomics Center [NCGC] U.S. Environmental Protection Agency [EPA] National Institutes of Environmental Health Sciences [NIEHS] National Toxicology Program [NTP] Oxidative stress has been implicated in the pathogenesis of a variety of diseases ranging from cancer to neurodegeneration. […] The activation of the report gene under culture conditions can be detected by fluorescence intensity. […]
Inconclusive results are not listed. Calls of active or inactive are those of the source. Calls follow the shape of the dose curve; as a rule, active = well fitted activation curve with a large enough effect in the signal ratio; inconclusive = small, poorly fitted or top-dose-only effect, or effect the other way, or a change in a side signal; inactive = flat fitted curve, though single readings scatter; the % refers to the signal ratio.
Form entry, call: pick from true (1) = active, false (0) = inactive

Some solved entries appear below for comparison.
Cc1ccc(S(=O)(=O)N=C=O)cc1 ... false (0)
COC(=O)c1ccc(C(=O)OC)cc1 ... false (0)

*Q* Write down the call the test reported for this compound. Item: `Oc1ccc(Nc2ccccc2)cc1`
*A* true (1)

* * *

target: Cytochrome P450 2C9 (Homo sapiens) (UniProt P11712); test: qHTS Assay for Inhibitors and Substrates of Cytochrome P450 2C9 (AID 883); conditions: recombinant CYP2C9, luciferin-H luminescence, 60 min; series mostly up to 11.4 µM; also: nearly all actives have a fitted effect of over 60% in size
Sequence (P11712 whole entry, looked up): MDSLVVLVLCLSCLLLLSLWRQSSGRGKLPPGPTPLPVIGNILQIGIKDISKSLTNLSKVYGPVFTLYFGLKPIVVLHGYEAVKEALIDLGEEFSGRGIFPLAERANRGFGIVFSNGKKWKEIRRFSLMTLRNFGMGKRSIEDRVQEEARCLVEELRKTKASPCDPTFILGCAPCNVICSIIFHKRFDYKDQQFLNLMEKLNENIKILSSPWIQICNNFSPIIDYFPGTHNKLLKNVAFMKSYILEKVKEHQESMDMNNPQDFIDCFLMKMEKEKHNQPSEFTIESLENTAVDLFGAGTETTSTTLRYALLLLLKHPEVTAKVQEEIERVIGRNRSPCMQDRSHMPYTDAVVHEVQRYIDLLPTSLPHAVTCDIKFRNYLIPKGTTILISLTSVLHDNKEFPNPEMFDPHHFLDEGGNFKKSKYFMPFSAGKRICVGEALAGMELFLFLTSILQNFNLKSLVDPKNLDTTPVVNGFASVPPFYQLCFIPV
Inconclusive results are not listed. Active and inactive are the calls of the source. Calls follow the shape of the dose curve; as a rule, active = well fitted inhibition curve with a large enough effect; inconclusive = small, poorly fitted or top-dose-only effect; inactive = no such curve, though single readings can be large or run the other way.
Form entry, call: pick from Y for active, N for inactive

*Q* Write down the call the test reported for this molecule. Item: C=CCC1(C)OC=Cc2nc3cc(Cl)c(Cl)cc3nc21 (stereo unspecified)
*A* N

*Q* Write down the call the test reported for this molecule. Item: COC(=O)CC1=COC2OCC3=CC[C@@H]1C32 (stereo partly specified)
*A* N

*Q* Write down the call the test reported for this molecule. Item: `C#CCCCO/N=C1/[C@H]2O[C@@H]2[C@@H](O)[C@H]2[C@H]1CCn1c(=O)n(Cc3cc4c(cc3Cl)OCO4)c(=O)n12`
*A* N

*Q* Write down the call the test reported for this molecule. Item: COC(=O)C(C(C)=O)C(NC(=O)NCc1ccccc1)c1ccccc1 (stereo unspecified)
*A* N

*Q* Write down the call the test reported for this molecule. Item: `CCCCOC(OCCCC)[C@H](O)CSc1ccc2ccccc2c1`
*A* Y

*Q* Write down the call the test reported for this molecule. Item: CC(C)CC1OCCC=CC1C (stereo unspecified)
*A* N

* * *

molecular target: Cytochrome P450 3A4 (Homo sapiens); assay: qHTS Assay for Inhibitors and Substrates of Cytochrome P450 3A4 (AID 884); conditions: recombinant CYP3A4, Luciferin-PPXE luminescence; series mostly up to 57.1 µM; also: nearly all actives have a fitted effect of over 50% in size
Records with an inconclusive call do not appear. Activity calls are given as the source filed them. Calls follow the shape of the dose curve; as a rule, active = well fitted inhibition curve with a large enough effect; inconclusive = small, poorly fitted or top-dose-only effect; inactive = no such curve, though single readings can be large or run the other way.
Form entry, call: pick from T (active), F (inactive)

Some solved entries appear below for comparison.
C/C(CCN1CCCCc2nc(C)c(C)cc21)=N\OC[C@@H](O)COCc1ccco1 ... T
CC1=C(C(=O)OCc2ccccc2)C(C2CC2)NC(=O)N1CCCCCC(=O)O (centres undefined) ... F

*Q* Write down the call the test reported for this compound. Item: `C#CCCCO/N=C1/C[C@@H](O)[C@@H](O)[C@@H]2[C@H]3C(=O)N(c4ccc(F)cc4F)C(=O)[C@@H]3CC[C@@H]12`
*A* T

*Q* Write down the call the test reported for this compound. Item: `COc1ccc(/C=C/C(=O)c2ccc(C)s2)cc1`
*A* F

*Q* Write down the call the test reported for this compound. Item: `CCC1=C(OC(=O)N(CC)CC)N2C(=O)OC(=NCC(=O)OC)[C@]2(C)[C@H]2C1=CC[C@H]1C(=O)NC(=O)[C@H]12`
*A* T

*Q* Write down the call the test reported for this compound. Item: `CCN1C(=O)[C@H]2[C@H]3[C@H](O)[C@H](O)C/C(=N/O[C@@H](C)c4cc(-c5c(C)cc(C)cc5C)no4)[C@@H]3CC[C@@H]2C1=O`
*A* T

*Q* Write down the call the test reported for this compound. Item: `S=C=Nc1cccc(NC(=S)NCCCCNC(=S)Nc2cccc(N=C=S)c2)c1`
*A* T

*Q* Write down the call the test reported for this compound. Item: `Cn1c(N)c(C(=O)COC(=O)c2cc(C(F)(F)F)nc3ccccc23)c(=O)n(C)c1=O`
*A* F

*Q* Write down the call the test reported for this compound. Item: CC1(C)OCC(CSC2=C(SCC3COC(C)(C)O3)C(=O)c3ncccc3C2=O)O1 (centres undefined)
*A* T

*Q* Write down the call the test reported for this compound. Item: C=CCOC(=O)C(C(C)=O)C(NC(=O)OC)c1cccc(C)c1 (centres undefined)
*A* T

*Q* Write down the call the test reported for this compound. Item: `COc1ccc(/C=C/N(CCc2ccc(OC)c(OC)c2)C(=O)C(F)(F)F)cc1`
*A* T

*Q* Write down the call the test reported for this compound. Item: COC(=O)c1ccc(C(NC(=O)OCc2ccccc2)/C(C)=C/[C@@H](C)C(=O)NC2CCCCC2)cc1 (some centres undefined)
*A* T

*Q* Write down the call the test reported for this compound. Item: COC(=O)c1ccc(C(NC(=O)OCc2ccccc2)/C(C)=C/[C@@H](C)C(=O)NCc2nc3ccccc3s2)cc1 (some centres undefined)
*A* T

*Q* Write down the call the test reported for this compound. Item: `O=C(O)c1cc(C(F)(F)F)nc2ccccc12`
*A* F

*Q* Write down the call the test reported for this compound. Item: COc1ccc(OC2C=CC(c3ccccc3)OC2CO)c(C(C)(C)C)c1 (centres undefined)
*A* T

*Q* Write down the call the test reported for this compound. Item: Cc1ccc(CC(Cc2nc3ccccc3[nH]2)c2nc3ccccc3[nH]2)cc1 (centres undefined)
*A* T

*Q* Write down the call the test reported for this compound. Item: CC(=O)OCC1OC(C#Cc2ccc(F)cc2F)C=CC1OC(C)=O (centres undefined)
*A* T

*Q* Write down the call the test reported for this compound. Item: CC(=O)OCC1OC(C#Cc2ccccc2Cl)C=CC1OC(C)=O (centres undefined)
*A* T

*Q* Write down the call the test reported for this compound. Item: `COC(=O)[C@@H]1C[C@@]2(O)[C@@H](O)[C@@H](O)[C@@H](O)C[C@H]2N1C/C=C/c1ccccc1`
*A* F

* * *

target: Cytochrome P450 3A4 (Homo sapiens) (UniProt P08684); experiment: qHTS Assay for Inhibitors and Substrates of Cytochrome P450 3A4 (AID 884); conditions: recombinant CYP3A4, Luciferin-PPXE luminescence; series mostly up to 57.1 µM; also: nearly all actives have a fitted effect of over 50% in size; also: potency is read from the fitted curve at half-maximal effect
Sequence (P08684 whole entry, looked up): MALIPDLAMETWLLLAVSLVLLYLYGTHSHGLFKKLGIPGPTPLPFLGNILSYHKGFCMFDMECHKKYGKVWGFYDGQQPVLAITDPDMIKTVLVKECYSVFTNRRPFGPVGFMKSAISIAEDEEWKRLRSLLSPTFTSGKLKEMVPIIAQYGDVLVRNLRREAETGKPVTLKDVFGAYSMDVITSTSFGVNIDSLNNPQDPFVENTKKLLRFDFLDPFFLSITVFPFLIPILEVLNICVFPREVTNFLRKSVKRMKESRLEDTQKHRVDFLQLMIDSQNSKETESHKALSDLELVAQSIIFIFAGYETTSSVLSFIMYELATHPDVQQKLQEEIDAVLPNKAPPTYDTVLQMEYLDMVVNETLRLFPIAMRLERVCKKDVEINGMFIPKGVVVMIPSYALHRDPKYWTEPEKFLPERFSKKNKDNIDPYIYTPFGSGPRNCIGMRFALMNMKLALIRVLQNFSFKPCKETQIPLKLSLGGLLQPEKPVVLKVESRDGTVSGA
Results filed as inconclusive are left out. The source made the active and inactive calls. Calls come from the whole dose curve; as a rule, active = well fitted inhibition curve with a large enough effect; inconclusive = small, poorly fitted or top-dose-only effect; inactive = no such curve, though single readings can be large or run the other way.
readout: Potency

Some solved cases for reference:
C=CCCC/C=C(/C)C(OCc1ccc(OC)cc1)C(CC/C=C(\C)C(N)=O)OC (stereo unspecified) ... 3.98 µM (active)
COC(=O)N(/C=C/c1ccc(OC)cc1)CCc1ccc(OC)c(OC)c1 ... 3.98 µM (active)
COc1cc(O)c(C(=O)/C=C/c2ccc(O)c(OC)c2)c(OC)c1 ... 7.94 µM (active)
COC(=O)[C@@H]1C[C@@]2(O)[C@@H](O)[C@@H](O)[C@@H](O)C[C@H]2N1Cc1ccc(C(F)(F)F)cc1 ... inactive
CC1CCC2C(=O)N3C(CCC(C)[C@@H]3c3cccc(N4CCOCC4)c3)C(=O)N2C1c1cccc(N2CCOCC2)c1 (stereo partly specified) ... 3.98 µM (active)
Cc1cc(F)ccc1OC1C=CC(c2ccc3c(c2)OCO3)OC1CO (stereo unspecified) ... 3.16 µM (active)
CCCNC(=O)OC[C@@H]1O[C@H](CCO/N=C(\C)CCN2CCc3nc(CC)c(CC)cc3C2)C=C[C@@H]1Oc1ccc(OC)cc1 ... 3.98 µM (active)
COC(=O)c1ccc(C23CC4(C2)[C@H](CN(Cc2ccc(-c5ccccc5)cc2)[C@@H]4c2ccccc2)C3c2ccc(C(F)(F)F)cc2)cc1 (stereo partly specified) ... inactive

The observed Potency for `O=C1C=CC(=C(c2ccc(O)cc2)c2ccc(O)cc2)C=C1` when tested with Cytochrome P450 3A4 (Homo sapiens) (UniProt P08684) stands at 20 µM (active)

The observed Potency for `Cc1ccc(S(=O)(=O)N[C@@H](CCc2ccccc2)CC(=O)C(C)(C)C)cc1` when tested with Cytochrome P450 3A4 (Homo sapiens) (UniProt P08684) stands at 1.58 µM (active)

The observed Potency for `Cc1cc2c(nc1C)CCCN2C[C@H](O)CN1CCCc2nc(-c3ccc(Br)cc3)ccc21` when tested with Cytochrome P450 3A4 (Homo sapiens) (UniProt P08684) stands at 3.98 µM (active)

The observed Potency for `CCCC[C@@H]1C[C@H]1[C@@H](NP(=O)(c1ccccc1)c1ccccc1)c1ccccc1OC` when tested with Cytochrome P450 3A4 (Homo sapiens) (UniProt P08684) stands at 3.98 µM (active)

The observed Potency for `CN(C)/C=N/c1cc(=O)n(Cc2ccccc2)c(=O)n1C` when tested with Cytochrome P450 3A4 (Homo sapiens) (UniProt P08684) stands at inactive

The observed Potency for CC(=O)OC(C)(C)C1Cc2cc3ccc(=O)oc3cc2O1 (stereo unspecified) when tested with Cytochrome P450 3A4 (Homo sapiens) (UniProt P08684) stands at inactive

The observed Potency for `CCC1=C(OC(=O)N(CC)CC)N2C(=O)OC(=NCc3ccccc3)[C@]2(C)[C@H]2C1=CC[C@H]1C(=O)N(c3ccccc3)C(=O)[C@H]12` when tested with Cytochrome P450 3A4 (Homo sapiens) (UniProt P08684) stands at 2.51 µM (active)

The observed Potency for `CC(=O)N1[C@H](Cc2ccccc2)C=C[C@]1(C)C(=O)NCc1cc(F)cc(C(F)(F)F)c1` when tested with Cytochrome P450 3A4 (Homo sapiens) (UniProt P08684) stands at 6.31 µM (active)
